Residue at 500 °C by entry:
Test: Thermogravimetric analysis (TGA), thermal stability
Format: physicochemical
Settings: mass residue remaining at 500 °C
EXPERIMENTAL ENDPOINT: Residue at 500 °C

MOLECULE	EXPERIMENTAL ENDPOINT	OBSERVED RESULT
CCCCC(CC)COC(=O)CC(C(=O)OCC(CC)CCCC)S(=O)(=O)O.O=C(O)c1cn(C2CC2)c2cc(N3CCNCC3)c(F)cc2c1=O (stereo not shown) [[Cip][Doc]]	Residue at 500 °C	24.26%
COc1c(N2C[C@@H]3CCCN[C@@H]3C2)c(F)cc2c(=O)c(C(=O)O)cn(C3CC3)c12.O=S(=O)(NS(=O)(=O)C(F)(F)F)C(F)(F)F [[Mox][NTF2]]	Residue at 500 °C	24.57%
COc1c(N2C[C@@H]3CCCN[C@@H]3C2)c(F)cc2c(=O)c(C(=O)O)cn(C3CC3)c12.C[C@H](CCC(=O)O)[C@H]1CC[C@H]2[C@@H]3CC[C@@H]4C[C@H](O)CC[C@]4(C)[C@H]3C[C@H](O)[C@]12C [[Mox][Dxc]]	Residue at 500 °C	15.60%
COc1c(N2C[C@@H]3CCC[NH2+][C@@H]3C2)c(F)cc2c(=O)c(C(=O)O)cn(C3CC3)c12.c1ccc([B-](c2ccccc2)(c2ccccc2)c2ccccc2)cc1 [[Mox][TPB]]	Residue at 500 °C	42.13%

// data source = paper PMC10650486
